target: ABCB1 (Homo sapiens); assay: vanadate-sensitive ATPase stimulation in crude membranes
Sequence (P08183 whole entry): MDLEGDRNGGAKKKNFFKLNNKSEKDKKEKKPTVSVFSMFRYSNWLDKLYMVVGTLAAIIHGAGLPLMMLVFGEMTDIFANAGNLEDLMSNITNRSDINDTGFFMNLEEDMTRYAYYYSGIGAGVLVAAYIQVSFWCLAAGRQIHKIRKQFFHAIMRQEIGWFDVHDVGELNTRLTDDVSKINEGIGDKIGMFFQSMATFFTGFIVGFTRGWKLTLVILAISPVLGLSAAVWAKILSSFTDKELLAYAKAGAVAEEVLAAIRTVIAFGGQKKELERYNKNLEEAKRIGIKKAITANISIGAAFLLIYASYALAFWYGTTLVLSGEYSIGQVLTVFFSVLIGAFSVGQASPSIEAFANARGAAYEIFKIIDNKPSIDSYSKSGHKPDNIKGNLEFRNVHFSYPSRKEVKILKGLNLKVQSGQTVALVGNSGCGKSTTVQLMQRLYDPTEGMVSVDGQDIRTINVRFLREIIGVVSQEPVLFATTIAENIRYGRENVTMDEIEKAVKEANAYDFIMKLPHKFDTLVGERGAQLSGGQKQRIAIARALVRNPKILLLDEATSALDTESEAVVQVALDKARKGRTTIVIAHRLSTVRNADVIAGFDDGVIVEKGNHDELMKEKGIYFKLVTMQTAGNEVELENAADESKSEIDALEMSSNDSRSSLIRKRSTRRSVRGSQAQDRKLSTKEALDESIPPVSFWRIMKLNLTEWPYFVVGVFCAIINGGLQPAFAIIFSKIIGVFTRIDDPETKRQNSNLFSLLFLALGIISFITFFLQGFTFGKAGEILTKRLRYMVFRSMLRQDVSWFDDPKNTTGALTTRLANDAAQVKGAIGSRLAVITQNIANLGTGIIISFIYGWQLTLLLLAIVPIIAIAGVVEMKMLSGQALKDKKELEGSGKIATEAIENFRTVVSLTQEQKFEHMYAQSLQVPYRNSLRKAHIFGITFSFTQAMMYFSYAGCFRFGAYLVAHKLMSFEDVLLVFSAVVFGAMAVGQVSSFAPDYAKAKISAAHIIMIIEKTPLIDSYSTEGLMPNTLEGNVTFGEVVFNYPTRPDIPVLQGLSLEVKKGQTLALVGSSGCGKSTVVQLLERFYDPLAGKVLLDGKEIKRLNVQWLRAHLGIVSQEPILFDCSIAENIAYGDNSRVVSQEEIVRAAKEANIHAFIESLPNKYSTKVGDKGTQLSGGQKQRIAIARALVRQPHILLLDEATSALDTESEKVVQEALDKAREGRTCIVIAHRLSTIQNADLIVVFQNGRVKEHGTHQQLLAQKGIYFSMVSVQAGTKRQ
ENDPOINT NAME: EC50 (nM)
Answers are plain numbers, in nM.

Request: Write EC50 of CC1(C)CNc2cc(NC(=O)c3cccnc3NCc3ccncc3)ccc21 ; system used: ABCB1 (Homo sapiens)
Result: 893
